Tested on: SW-620 colon
Test: NCI tumour cell line growth inhibition, 48 h; in the data active = GI50 below about 0.43 µM; inactive = the rest
Lab note: assign the record to one of active, inactive

Request: For O=C(Cn1ccnc1[N+](=O)[O-])NCC(F)(F)C(F)(F)F , what call appears in the results of this test?
Response: inactive

Request: For COC(=O)Nc1nc2ccc(Oc3ccc(NC(=O)Nc4cccc(Cl)c4)cc3)cc2[nH]1 , what call appears in the results of this test?
Response: inactive

Request: For CN(C)CC1CCn2c(c(C3=C(c4cn(C)c5ccccc45)C(=O)NC3=O)c3ccccc32)C1 (stereo not drawn) , what call appears in the results of this test?
Response: inactive

Request: For CCNc1nc(N2CC(=O)Nc3cc(OC)ccc32)c2ccccc2n1 , what call appears in the results of this test?
Response: active

Request: For CCOC(=O)c1c(Cl)c2c(n1Cc1cc(OC)cc(OC)c1)-c1oncc1CCC2 , what call appears in the results of this test?
Response: active

Request: For CCCC(=O)NNc1[nH]c(-c2ccc(OC)cc2)cc1C(=O)OCC , what call appears in the results of this test?
Response: inactive

Request: For Cn1cnc2c(NCc3ccccc3)nc(NCCO)nc21 , what call appears in the results of this test?
Response: inactive

Request: For C/C(=C\c1c[nH]c2ccccc12)[N+](=O)[O-] , what call appears in the results of this test?
Response: inactive

Request: For COc1cc(-c2nc3ccccc3s2)ccc1OCc1nc2n(n1)S(=O)(=O)c1ccccc1N2C , what call appears in the results of this test?
Response: inactive

Request: For Cc1ccc2sc3c(NCCCNCCO)nc4ccccc4c3c(=O)c2c1 , what call appears in the results of this test?
Response: inactive

Request: For COc1ccc(F)cc1C(=O)c1cnc(NC2CCN(S(C)(=O)=O)CC2)nc1N , what call appears in the results of this test?
Response: inactive

Request: For c1ccc2cc(Cn3c(-c4ccc5ccccc5c4)[n+](Cc4ccc5ccccc5c4)c4ccccc43)ccc2c1 , what call appears in the results of this test?
Response: active

Request: For COc1cc2c(cc1OC)[C@@]1(C)C(=O)c3cc4c(cc3[C@H]1N(C)C2=O)OCO4 , what call appears in the results of this test?
Response: inactive

###

Task for the reader: assign each of the following compounds its reported GI50.
Test system: BT-549 breast
Test: NCI tumour cell line growth inhibition, 48 h

Request: For the compound CCCC(=O)NNc1[nH]c(-c2ccc(OC)cc2)cc1C(=O)OCC , give its measured GI50 value.
Response: 15.7 µM

Request: For the compound CN(C)CC1CCn2c(c(C3=C(c4cn(C)c5ccccc45)C(=O)NC3=O)c3ccccc32)C1 (stereo unspecified) , give its measured GI50 value.
Response: 5.3 µM

Request: For the compound Clc1ccc(CO/N=C(\Cn2ccnc2)c2ccc(Cl)cc2Cl)c(Cl)c1 , give its measured GI50 value.
Response: 1.97 µM

Request: For the compound Cn1cnc2c(NCc3ccccc3)nc(NCCO)nc21 , give its measured GI50 value.
Response: 147 µM

Request: For the compound COc1cc(-c2nc3ccccc3s2)ccc1OCc1nc2n(n1)S(=O)(=O)c1ccccc1N2C , give its measured GI50 value.
Response: > 100 µM

Request: For the compound COc1ccc(F)cc1C(=O)c1cnc(NC2CCN(S(C)(=O)=O)CC2)nc1N , give its measured GI50 value.
Response: 4.11 µM

Request: For the compound COC(=O)Nc1nc2ccc(Oc3ccc(NC(=O)Nc4cccc(Cl)c4)cc3)cc2[nH]1 , give its measured GI50 value.
Response: 5.87 µM

Request: For the compound CCOC(=O)c1c(Cl)c2c(n1Cc1cc(OC)cc(OC)c1)-c1oncc1CCC2 , give its measured GI50 value.
Response: 19.6 µM

Request: For the compound Cc1cccc(N=C2c3cc([N+](=O)[O-])ccc3-c3c2cc([N+](=O)[O-])cc3[N+](=O)[O-])c1 , give its measured GI50 value.
Response: 3.45 µM

Request: For the compound CO[C@H](C(=O)N[C@@H](CCCCNC(=O)OCc1ccccc1)C(=O)OC(C)(C)C)[C@@H]1Cc2cc3cc(OC4CC(OC5CC(O)C(O)C(C)O5)C(O)C(C)O4)c(C)c(O)c3c(O)c2C(=O)[C@H]1OC1CC(OC2CC(OC3CC(C)(O)C(O)C(C)O3)C(O)C(C)O2)C(O)C(C)O1 (stereo partly specified) , give its measured GI50 value.
Response: 0.518 µM

Request: For the compound CC/C(=C(\CC)c1ccc(OCCN(CC)CC)cc1)c1ccc(OCCN(CC)CC)cc1 , give its measured GI50 value.
Response: 4.55 µM

###

System: K-562 leukemia
Assay: NCI tumour cell line growth inhibition, 48 h; in the data active = GI50 below about 0.43 µM; inactive = the rest
Lab note: assign the record to one of active, inactive

Request: For Cc1cc(C)nc(SC2=C(Nc3cccc(Cl)c3)C(=O)N(Cc3ccccc3)C2=O)n1 , what call appears in the results of this test?
Response: inactive

Request: For O=C(Nc1ccc(Br)c(Cl)c1)c1cc(F)ccc1O , what call appears in the results of this test?
Response: active

Request: For CCOC(=O)c1c(Cl)c2c(n1Cc1cc(OC)cc(OC)c1)-c1oncc1CCC2 , what call appears in the results of this test?
Response: active

Request: For COc1cccc2c1c1nc3cc(C)c(C)cc3nc1n2CCN(C)C , what call appears in the results of this test?
Response: inactive

###

Tested on: A549 NSCLC
Assay: NCI tumour cell line growth inhibition, 48 h
value_type: TGI (µM)
# unit: µM | format: bare number

Request: Consider the compound C/C(=N/NC(=S)N1CCCC1)c1cccc(/C(C)=N\NC(=S)N2CCCC2)n1 tested on A549 NSCLC; state its TGI.
Response: 9.01

Request: Consider the compound CN(C)CC1CCn2c(c(C3=C(c4cn(C)c5ccccc45)C(=O)NC3=O)c3ccccc32)C1 (stereo not given) tested on A549 NSCLC; state its TGI.
Response: 9.06

Request: Consider the compound COC(=O)c1c2c(c(C)[n+]([O-])c1C)C(=O)C(NCc1ccc(F)c(F)c1)=CC2=O tested on A549 NSCLC; state its TGI.
Response: 6.17

Request: Consider the compound O=C(CC1(O)C(=O)Nc2c(Cl)cc(Cl)cc21)c1ccc2ccccc2c1 (stereo not given) tested on A549 NSCLC; state its TGI.
Response: 18.2

Request: Consider the compound CC(C)=CCC[C@@H](C)C1=C(Nc2ccccc2)C(O)=C(C)C(=O)C1=O tested on A549 NSCLC; state its TGI.
Response: 13.5

###

Test system: MCF7 breast
Assay: NCI tumour cell line growth inhibition, 48 h
value_type: TGI

Request: For the molecule Cc1cc(NCC2CC/C(=C\C=C\c3ccccc3)C2=O)no1 (centres undefined) , give its measured TGI value.
Response: > 100 µM

Request: For the molecule O=c1[nH]c2ccsc2c(=O)n1COCc1ccccc1 , give its measured TGI value.
Response: > 100 µM

Request: For the molecule O=C(O)CCC1CCC(c2cc(F)ccc2F)(S(=O)(=O)c2ccc(Cl)cc2)CC1 (centres undefined) , give its measured TGI value.
Response: > 100 µM

Request: For the molecule C=CC1(c2ccc(Br)cc2)OCCCO1 , give its measured TGI value.
Response: > 100 µM

Request: For the molecule O=C(/C=C\Sc1nccc(C(F)(F)F)n1)c1ccc(Br)cc1 , give its measured TGI value.
Response: 84.8 µM

Request: For the molecule Cn1cc(C2=C(c3c4n(c5ccccc35)CCC(CN)CC4)C(=O)NC2=O)c2ccccc21 (centres undefined) , give its measured TGI value.
Response: 7.41 µM

Request: For the molecule O=C(/C=C/c1ccccc1)CCC1C(=O)NC(=O)NC1=O , give its measured TGI value.
Response: > 100 µM

Request: For the molecule CC1(C)N=C(N)N=C(N)N1c1cccc(OCc2cccc([N+](=O)[O-])c2)c1 , give its measured TGI value.
Response: > 100 µM

Request: For the molecule CCOC(=O)Oc1cc2c(ccn2C)c2c1c1ccccc1n2C(=O)OCC , give its measured TGI value.
Response: > 100 µM

Request: For the molecule CC(C)C(Cl)CC/C(CBr)=C(\Cl)CCl (centres undefined) , give its measured TGI value.
Response: 1.29 µM

Request: For the molecule COC(=O)Nc1nc2ccc(Oc3ccc(NC(=O)Nc4cccc(Cl)c4)cc3)cc2[nH]1 , give its measured TGI value.
Response: 4.75 µM

Request: For the molecule O=C1/C(=C/C(Cl)=C/c2ccccc2)SC(=S)N1CCc1ccc(O)cc1 , give its measured TGI value.
Response: 16.9 µM

Request: For the molecule COC(=O)[C@]12CSC[C@H]1C[C@H](c1ccc(N(C)C)cc1)N2 , give its measured TGI value.
Response: > 100 µM

Request: For the molecule COc1cccc2c1c1nc3cc(C)c(C)cc3nc1n2CCN(C)C , give its measured TGI value.
Response: 10.9 µM

Request: For the molecule COC(=O)N/N=C(\C)C(CN1CCOCC1)C(c1ccccc1)c1cc2ccccc2oc1=O (centres undefined) , give its measured TGI value.
Response: > 100 µM

Request: For the molecule CN1CCN(C(=S)N(C)C(=O)c2cccs2)CC1 , give its measured TGI value.
Response: > 100 µM

Request: For the molecule COC(=O)C#Cc1ccc([N+](=O)[O-])cc1 , give its measured TGI value.
Response: 9.04 µM

Request: For the molecule C#C[C@]1(O)CC[C@H]2[C@@H]3CCC4=C/C(=N\OCCN5CCCC5)CC[C@]4(C)[C@H]3CC[C@@]21C , give its measured TGI value.
Response: 21.5 µM

Request: For the molecule O=c1[nH]n(Cc2ccccc2CCl)c2ccc([N+](=O)[O-])cc12 , give its measured TGI value.
Response: > 100 µM

Request: For the molecule O=C(Nc1ccc(Br)c(Cl)c1)c1cc(F)ccc1O , give its measured TGI value.
Response: > 50 µM

Request: For the molecule C/C1=C\CC[C@@]2(C)O[C@@H]2[C@H]2OC(=O)C(C)C2C[C@H]1O (some centres undefined) , give its measured TGI value.
Response: > 100 µM

Request: For the molecule NC(=O)Oc1cc(OC(N)=O)cc(N(CCCl)CCCl)c1 , give its measured TGI value.
Response: 47.4 µM

Request: For the molecule O=C(O)Cc1[nH]cnc1C(=O)O , give its measured TGI value.
Response: > 100 µM

Request: For the molecule Cc1ccccc1NC(=O)/C(C#N)=N\Nc1nc[nH]c1C(N)=O , give its measured TGI value.
Response: > 100 µM

Where do the numbers come from? From PubChem BioAssay (NCI).
